- assay: clinical
- test.parameters: both sexes, human, in vivo, po, 100 mg, AUCO-inf
quantity: AUC
Number plus unit, in that order.

[ask] Returns the measured AUC for the input molecule. Input: O[C@H]1CC[C@H](Nc2ncc3nc(Nc4c(F)cc(F)cc4F)n([C@H]4CCOC4)c3n2)CC1 [Compound I]
[reply] 14800 ng·h/mL

###

- assay: clinical
- test.parameters: male, human, in vivo, 100 mg, AUC0-∞
quantity: AUC(0-inf) (ng·h/mL)
Give the value, in units of ng·h/mL, as a plain number.

[ask] Returns the measured AUC(0-inf) for the input compound. Input: O[C@H]1CC[C@H](Nc2ncc3nc(Nc4c(F)cc(F)cc4F)n([C@H]4CCOC4)c3n2)CC1 [Compound I]
[reply] 15600
